Target: human CD36 recombinant protein (Sino Biological, reference 10752-H08H) (human)
Assay: SPR Biacore T200, antibody captured on anti-mouse IgA, CD36 analyte 3.3-333 nM, 1-to-1 model
pKd: −log10 of the molar value.

# substance, pKd
data = [
    ("commercial neutralizing monoclonal anti-CD36 antibody JC63.1 (CAYMAN, CAY-10009893-500)", 8.33),
]

* * *

Biological target: human CD36 recombinant protein (Sino Biological, reference 10752-H08H) (human)
Experiment: SPR Biacore T200, antibody captured on anti-mouse IgA, CD36 analyte, 2-state model

# substance, test.target, Kd, nM
measured = [
    ("commercial neutralizing monoclonal anti-CD36 antibody JC63.1 (CAYMAN, CAY-10009893-500)", "human CD36 recombinant protein (Sino Biological, reference 10752-H08H) (human)", 7.61),
]
